Cited source for all entries: PubChem BioAssay (NCI)

Tested on: HS 578T breast
Assay: NCI-60 one-dose screen, 48 h
Conditions: 10 µM unless noted
This is part of a sample that, as a whole, favours compounds with a hit. Of some 83,000 tested, about 20% had one in any assay. The source made the active and inactive calls. How the source made its calls: active means growth percent below 10; inactive means the rest.
Outcome field: choose from 1.0 for active, 0.0 for inactive

Look over these answered cases.
Cc1nn(-c2cccc(Cl)c2)c(C)c1N=Nc1ccc(Br)cc1
0.0
N/C(=N\OC(=O)c1ccccc1)C(Cc1ccccc1)C(=O)NOC(=O)c1ccccc1 (configuration not stated)
1.0
Fc1ccc(-c2nc(-c3ccc(-c4nc5ccc(F)cc5[nH]4)cc3)no2)cc1
0.0
Nc1ncnc2c1N=C(c1ccc3c(c1)OCO3)CC(c1ccc(Cl)cc1)N2 (configuration not stated)
0.0

# input In this assay, the call recorded for CN1C(=O)N(C)C2C1NN=c1s/c(=C\c3ccsc3)c(=O)n12 (configuration not stated) was what?
# output 0.0

# input In this assay, the call recorded for COc1cccc(C2C(C#N)=C(N)Oc3cc4c(cc32)OCO4)c1 (configuration not stated) was what?
# output 0.0

# input In this assay, the call recorded for CC(SC(C)C(=O)N/N=C/c1cccc(Cl)c1)C(=O)N/N=C\c1cccc(Cl)c1 (configuration not stated) was what?
# output 0.0

# input In this assay, the call recorded for COc1cccc(/C(C)=N/NC(=O)CSc2nc3ccccc3c(=O)n2CCc2ccc(S(N)(=O)=O)cc2)c1 was what?
# output 0.0

---

Assignment: determine reported growth for the given compounds.
Test system: SF-295 CNS
Assay: NCI-60 one-dose screen, 48 h (100 = growth as untreated, 0 = no growth, -100 = all killed)
Settings: 10 µM unless noted
This is part of a sample that, as a whole, favours compounds with a hit. Of some 83,000 tested, about 20% had one in any assay. The source made the active and inactive calls. Rule for the calls: active = growth percent below 10; inactive = the rest.

CCCC(CCC)(C(N)=O)C(=O)O
107% (inactive)
CCn1c(Cc2ccccc2Nc2c(Cl)cccc2Cl)nnc1SCC(=O)Nc1cccc(OC)c1
81.9% (inactive)
O=c1nc(-c2ccccc2)c2cc(-c3ccc(N4CCOCC4)cc3)ccc2[nH]1
88.6% (inactive)
CCOC(=O)C1OC2(CCCC2)OC1C(=O)OCC (configuration not stated)
126% (inactive)
CCN(CC)c1cc(C)c(Cc2c(OC)ccc3ccccc23)cc1C
103% (inactive)
Clc1cc(Cl)cc(-c2cnc3nonc3n2)c1
99.8% (inactive)

Dear colleague, could you send me growth for each of the items below? Thanks.
1. Clc1ccc(-c2cnc3c(-c4ccnc(N5CCNCC5)c4)cnn3c2)cc1
2. CCOC(=O)C(CCCCC(NC(C)=O)(C(=O)OCC)C(=O)OCC)(NC(C)=O)C(=O)OCC
3. COc1cc(CN(CCC(O)N2CCCC2=O)Cc2ccc3c(c2)OCO3)cc(OC)c1OC (configuration not stated)
4. Cc1ccc(OC2=C(C#N)C(=N)N3C(=NN2)Sc2c(C)ccc(C)c23)cc1
5. CC(SC(C)C(=O)N/N=C/c1cccc(Cl)c1)C(=O)N/N=C\c1cccc(Cl)c1 (configuration not stated)
6. Nc1nc(NC2CC2)cc(-c2cccc(Cl)c2Cl)n1
7. COC(=O)[C@H](Cc1cn(C)cn1)NC(=O)[C@H](CC(C)C)NC(=O)Nc1cc(C(F)(F)F)cc(C(F)(F)F)c1
8. C[C@@H]1N=C(c2ccc3ccccc3c2)Nc2nc3ccccn3c2C1=O

# output
1: 34.9% (inactive); 2: 99.3% (inactive); 3: 91.5% (inactive); 4: 96.7% (inactive); 5: 66.2% (inactive); 6: 55.7% (inactive); 7: -96.5% [100 µM] (active); 8: 14.9% (inactive)

Dear colleague, could you send me growth for each of the items below? Thanks.
1. Nc1cc(C(=O)O)cc(C(=O)O)c1
2. O=C(CC(=O)c1cccc(Cl)c1)c1cccc(Cl)c1
3. C=CCOC(=O)C1=C(C)NC2=C(C(=O)CCC2)C1c1ccc(F)cc1 (configuration not stated)
4. CN(C)CC(=O)c1ccc2cc(Br)c3ccccc3c2c1
5. COc1ccc(C(=O)OC2C(OC3C(O)COC(O[C@H]4C[C@H]5[C@@H]6CC=C7C[C@@H](O)CC[C@]7(C)[C@H]6CC[C@]5(C)[C@H]4[C@H](C)C(=O)CCC(C)C)C3OC(=O)C(C)C)OCC(O)C2O)cc1 (some centres not stated)

# output
1. 113% (inactive)
2. 26.8% (inactive)
3. 102% (inactive)
4. 82.8% (inactive)
5. -60.5% (active)

Dear colleague, could you send me growth for each of the items below? Thanks.
1. Nc1ccc(C2=NNC(=O)Cc3cc4c(cc32)OCCO4)cc1Cl
2. CC(C)(C)[Si](C)(C)OC1[C@@H](O[Si](C)(C)C(C)(C)C)[C@@H](CNC(=O)NC(=O)NC(=O)CI)O[C@H]1n1cnc2c(NC(=O)Nc3ccccc3)ncnc21 (some centres not stated)

# output
["15.9% (inactive)", "-56.8% (active)"]

Dear colleague, could you send me growth for each of the items below? Thanks.
1. O=c1c2cc(Cl)ccc2oc2ccc(OCCCCCN3CCCCCC3)cc12
2. CCOC(=O)C1C(=O)C=C(c2cc(OC)c(OC)c(OC)c2)CC1c1sc(N(C)Cc2ccccc2)nc1Cl (configuration not stated)
3. CN(C)CCCN1c2ccccc2CCc2ccccc21
4. CC(C)c1ccc(-c2cnc3nonc3n2)cc1
5. O=C(CC(=O)C(F)(F)C(F)(F)C(F)(F)F)c1cc2ccccc2o1
6. Nc1c(C(=O)C[C@@H](N)CO)ccc2c1C(=O)CCO2
7. Cc1c(C(=O)CCl)c(=O)n(-c2ccccc2)n1C

# output
1: 97.5% (inactive); 2: 89.3% (inactive); 3: 106% (inactive); 4: 48.9% (inactive); 5: 99.2% (inactive); 6: 48.3% (inactive); 7: 87.3% (inactive)
